test target: T1, ARHGEF11, O15085
T1 sequence (O15085 42-136, limits assumed, looked up): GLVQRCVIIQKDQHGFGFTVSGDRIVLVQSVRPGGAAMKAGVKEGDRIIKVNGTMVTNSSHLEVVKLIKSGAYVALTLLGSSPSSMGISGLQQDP
test: holdup assay
Set-up: key: below the threshold = too weak to quantify, mostly under pKd 3.1 to 4
condition context: plain residues with an end cap or a label only (N-terminal biotin on a linker: ado-ado)
quantity name: pKd

binder="EKKTLIGIKL [GOT1L1, Q8NHS2]" quantity_name=pKd value="below the threshold"
binder="EALLQMESVA [CAVIN3, Q969G5]" quantity_name=pKd value="below the threshold"
binder="SKENVQETQI [LRRC4B, Q9NT99]" quantity_name=pKd value="below the threshold"
